# assayed-system: sigma receptors (Cavia porcellus, UniProt Q60492)
# Construct: Brain tissue was prepared from male Hartley guinea pigs; from tissue; host or cells: guinea pig brain membranes
# Sequence (Q60492 whole entry): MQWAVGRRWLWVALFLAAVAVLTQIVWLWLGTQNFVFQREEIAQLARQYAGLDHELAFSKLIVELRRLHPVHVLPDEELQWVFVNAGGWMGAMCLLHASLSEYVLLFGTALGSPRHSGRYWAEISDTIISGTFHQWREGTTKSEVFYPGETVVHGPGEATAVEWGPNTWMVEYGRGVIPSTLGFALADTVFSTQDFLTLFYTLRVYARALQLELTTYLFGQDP
# test-summary: sigma receptor binding, [^3 H]-(+)-pentazocine, guinea pig brain membranes
# condition-details: mean or mean ±SEM of at least two separate determinations performed in triplicate; 37° C., 150 min; read-out: [^3 H] (+)-Pentazocine Ki
pKi: −log10 of the molar value.

- molecule: "C=CCOCC[C@]1(C)[C@H](C)CCN(Cc2ccccc2)[C@H]1C (relative stereo)"
  pKi: 6.52
- molecule: "C[C@@H]1CCN(Cc2ccccc2)[C@@H](C)[C@]1(C)CCCOCC1CC1 (relative stereo)"
  pKi: 8.43
- molecule: "COCCC[C@]1(C)[C@H](C)CCN(C)[C@H]1C (relative stereo)"
  pKi: 5.12
- molecule: "C[C@@H]1CCN[C@@H](C)[C@]1(C)CCCO (relative stereo)"
  pKi: 4.78
